- assay_method_text: NCI Yeast Anticancer Drug Screen. Data for the sgs1 mgt1 strain (AID 161);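 also: 0% = growth of cultures given vehicle only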
- test_parameters: S. cerevisiae sgs1 mgt1 strain, at 5.0 µM (retest, dose inferred, filed as 0.5), hits give high values
The panel holds about 79,000 compounds, 15% with a hit somewhere; the sample as a whole holds those more often.
Let's look at some compounds and their measured growth inhibition.
Just the number please, in %, no unit attached.

Some compounds with known growth inhibition results, for comparison:
{"compound": "C(=Nc1ccc(-c2cc(-c3ccccc3)nc3ccc4ccccc4c23)cc1)c1ccccc1", "growth inhibition (%)": 11}
{"compound": "Cc1ccc(Cl)cc1NC(=O)OCCN(C)C(=O)Nc1cc(Cl)ccc1C", "growth inhibition (%)": -29}
{"compound": "CCn1c(O)c(C=Nc2ccccc2)s/c1=N/Nc1nc(-c2ccccc2)cs1", "growth inhibition (%)": -7}

# growth inhibition of COc1cc(O)c2c(c1O)C(=O)c1cc(C)ncc1C2=O = 9

# growth inhibition of CN(C)N=Nc1ccccc1C(=O)NC#N = 36

# growth inhibition of Nc1n[n+]([O-])c2ccc(Cl)cc2[n+]1[O-] = 48

# growth inhibition of Cc1cccc[n+]1C1CCc2c(ccc3ccccc23)C1=O (configuration not stated) = 3

# growth inhibition of NC(=O)c1c([N+](=O)[O-])cc(C(F)(F)F)cc1[N+](=O)[O-] = 5

# growth inhibition of CN1CCN(C(=O)/C=C/C(=O)c2ccccc2)CC1 = 6

# growth inhibition of CCCCCCCCCCCC1=NCCO1 = -12

# growth inhibition of CS(=O)(=O)SCc1ccc([N+](=O)[O-])cc1 = -11

# growth inhibition of CCCC/C([O-])=C1/C(=O)N(c2ccccc2)N=C1C.CCCC/C([O-])=C1/C(=O)N(c2ccccc2)N=C1C.[Cu+2] = -2

Provenance of the data: PubChem BioAssay (NCI)
